# pIC50 listing for each entry below
system: SK-OV-3; test: Growth and colony formation inhibition of SKOV-3 ovarian cancer cell lines; format: functional, cell-based, Homo sapiens
Recall that pIC50 is obtained by taking minus log10 of the concentration measured in molar.

// query pIC50 value for entry "CARBOPLATIN"
4.55

// switching to the query substance
// query pIC50 value for entry "CISPLATIN"
6.30
